target under test: Cytochrome P450 2D6 (Homo sapiens, UniProt P10635)
Sequence (P10635 whole entry): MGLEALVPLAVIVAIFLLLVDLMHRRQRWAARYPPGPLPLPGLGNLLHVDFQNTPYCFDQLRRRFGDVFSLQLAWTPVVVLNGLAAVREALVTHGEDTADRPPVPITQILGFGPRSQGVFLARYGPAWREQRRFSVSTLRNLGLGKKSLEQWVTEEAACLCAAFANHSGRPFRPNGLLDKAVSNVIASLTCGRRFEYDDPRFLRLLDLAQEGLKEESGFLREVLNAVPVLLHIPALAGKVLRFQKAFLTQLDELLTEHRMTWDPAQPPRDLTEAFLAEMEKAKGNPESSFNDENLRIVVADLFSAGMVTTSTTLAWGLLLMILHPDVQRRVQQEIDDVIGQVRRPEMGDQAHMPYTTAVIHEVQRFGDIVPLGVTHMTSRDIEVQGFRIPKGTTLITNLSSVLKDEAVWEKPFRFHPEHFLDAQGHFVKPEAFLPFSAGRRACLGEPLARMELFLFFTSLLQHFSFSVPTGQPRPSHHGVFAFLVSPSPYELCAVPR
readout: IC50

Summary for this compound, CC(C)(F)CN1[C@@H]2CCC[C@@]1(c1c(F)cc(/C=C/C(=O)O)cc1F)c1[nH]c3ccccc3c1C2 : IC50 is > 30 µM

---

run description: in vitro
condition parameters: human, hepatocytes
What hepatocyte CLint was measured for each of the following?

In plain terms, CC(C)(F)CN1[C@@H]2C=CC[C@@]1(c1c(F)cc(/C=C/C(=O)O)cc1F)c1[nH]c3ccccc3c1C2 has a documented hepatocyte CLint of 14 µL/min/1e6 cells

compound C[C@@H]1Cc2c([nH]c3ccccc23)[C@@](C)(c2c(F)cc(/C=C/C(=O)O)cc2F)N1CC(C)(C)F , hepatocyte CLint observed: 13 µL/min/1e6 cells

Sure, the documented hepatocyte CLint for C[C@@H]1Cc2c([nH]c3ccccc23)[C@@H](c2c(F)cc(OCCN3CC(CF)C3)cc2F)N1CC(C)(C)F is < 1 µL/min/1e6 cells

Quick note, hepatocyte CLint for C[C@@H]1Cc2c([nH]c3ccccc23)[C@@H](c2c(F)cc(/C=C/C(=O)O)cc2F)N1CC(C)(C)F landed at 31 µL/min/1e6 cells

Form field hepatocyte CLint, entry CC(C)(F)CN1[C@@H]2CCC[C@@]1(c1c(F)cc(/C=C/C(=O)O)cc1F)c1[nH]c3ccccc3c1C2 : 8 µL/min/1e6 cells

Value of measured hepatocyte CLint for the entry CC(C)(F)CN1[C@@H]2CCC[C@@]1(c1c(F)cc(OCCN3CC(CF)C3)cc1F)c1[nH]c3ccccc3c1C2 : 4 µL/min/1e6 cells

---

run description: Stability of the compound assessed as parent compound remaining in buffer at pH 7.4 measured after 8 days by 1H-NMR analysis
Type: physicochemical
condition parameters: read-out: Stability
For each entry below, report its remaining at 192 h value.
Numeric only. Scale: %

Short answer for CC(C)(F)CN1[C@@H]2CCC[C@@]1(c1c(F)cc(OCCN3CC(CF)C3)cc1F)c1[nH]c3ccccc3c1C2 : remaining at 192 h was 100

compound C[C@@H]1Cc2c([nH]c3ccccc23)[C@@H](c2c(F)cc(OCCN3CC(CF)C3)cc2F)N1CC(C)(C)F , remaining at 192 h observed: 100

The value of remaining at 192 h measured for the compound CC(C)(F)CN1[C@@H]2C=CC[C@@]1(c1c(F)cc(/C=C/C(=O)O)cc1F)c1[nH]c3ccccc3c1C2 turned out to be 100

# compound C[C@@H]1Cc2c([nH]c3ccccc23)[C@@](C)(c2c(F)cc(OCCN3CC(CF)C3)cc2F)N1CC(C)(C)F ; its remaining at 192 h = 75

---

pIC50: −log10 of the molar value.
readout: pIC50

Assay Cytochrome P450 2C19 (Homo sapiens, UniProt P33261), sample CC(C)(F)CN1[C@@H]2CCC[C@@]1(c1c(F)cc(/C=C/C(=O)O)cc1F)c1[nH]c3ccccc3c1C2 , pIC50 read: < 4.52

---

run description: Plasma clearance in rat at 0.5 mg/kg, iv or 1 mg/kg, po
Assay type: ADME, organism-based
readout: clearance (mL/min/kg)
Numbers only here, please. The scale is mL/min/kg.

Entry under test: CC(C)(F)CN1[C@@H]2CCC[C@@]1(c1c(F)cc(/C=C/C(=O)O)cc1F)c1[nH]c3ccccc3c1C2 . Its clearance was 10

---

run description: Half-life in rat at 0.5 mg/kg, iv
Assay type: ADME, organism-based
condition parameters: in vivo
readout: half-life

Short answer for CC(C)(F)CN1[C@@H]2CCC[C@@]1(c1c(F)cc(/C=C/C(=O)O)cc1F)c1[nH]c3ccccc3c1C2 : half-life was 2.8 h

The values you see were collected from ChEMBL document CHEMBL4304838.
